Can you tell me Kd for the items I'm about to list?
# Tested On: T1, hLRRC33-proTGFβ1 (human, UniProt Q86YC3 19-650; P01137 30-390, limits assumed)
# T1 construct: LLC as m1; Same id used for the cell-surface complex in reporter assays; also called human LRRC33-proTGFβ1 complex; LRRC33-ProTGFb1
# T1 sequence (Q86YC3 19-650 limits assumed, chain 1 of 2): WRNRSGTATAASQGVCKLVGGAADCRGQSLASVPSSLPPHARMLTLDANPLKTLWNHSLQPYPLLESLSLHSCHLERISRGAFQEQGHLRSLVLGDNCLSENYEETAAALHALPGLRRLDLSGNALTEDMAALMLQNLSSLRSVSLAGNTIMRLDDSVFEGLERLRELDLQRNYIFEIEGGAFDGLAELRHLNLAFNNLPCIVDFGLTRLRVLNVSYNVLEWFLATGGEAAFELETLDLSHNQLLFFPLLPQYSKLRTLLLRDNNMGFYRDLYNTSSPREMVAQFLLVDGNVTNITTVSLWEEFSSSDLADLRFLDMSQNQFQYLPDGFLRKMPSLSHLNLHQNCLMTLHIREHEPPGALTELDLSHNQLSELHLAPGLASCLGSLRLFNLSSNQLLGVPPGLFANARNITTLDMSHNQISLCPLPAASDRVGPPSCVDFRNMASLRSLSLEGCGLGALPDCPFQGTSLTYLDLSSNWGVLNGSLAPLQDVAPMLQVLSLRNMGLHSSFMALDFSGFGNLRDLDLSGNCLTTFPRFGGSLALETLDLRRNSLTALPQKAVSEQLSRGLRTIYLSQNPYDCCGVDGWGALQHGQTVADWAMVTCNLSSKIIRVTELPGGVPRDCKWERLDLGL
# T1 sequence (P01137 30-390 limits assumed, chain 2 of 2): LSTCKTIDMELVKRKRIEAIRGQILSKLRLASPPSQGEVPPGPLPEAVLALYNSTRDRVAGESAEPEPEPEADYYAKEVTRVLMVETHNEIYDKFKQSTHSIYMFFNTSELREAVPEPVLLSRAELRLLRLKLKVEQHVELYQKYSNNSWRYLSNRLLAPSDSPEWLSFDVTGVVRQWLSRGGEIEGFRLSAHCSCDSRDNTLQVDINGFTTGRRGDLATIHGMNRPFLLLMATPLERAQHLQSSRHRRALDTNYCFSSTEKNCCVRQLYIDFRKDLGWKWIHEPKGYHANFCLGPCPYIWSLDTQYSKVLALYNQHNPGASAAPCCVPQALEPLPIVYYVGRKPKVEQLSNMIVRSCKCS
# Method: MSD-SET, hIgG4
Numbers only, in nM.

Observe how each entry below is paired with its result.
INSERT INTO measurements (binder, measure, number) VALUES
  ('Ab6 (antibody, V domains shown, Fully human IgG4/kappa) VH: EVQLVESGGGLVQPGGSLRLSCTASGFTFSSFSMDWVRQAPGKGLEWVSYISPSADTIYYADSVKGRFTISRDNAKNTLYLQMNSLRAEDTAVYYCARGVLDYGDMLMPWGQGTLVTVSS VL: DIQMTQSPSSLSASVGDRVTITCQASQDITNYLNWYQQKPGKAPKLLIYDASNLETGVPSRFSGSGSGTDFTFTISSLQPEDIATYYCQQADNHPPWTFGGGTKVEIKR', 'Kd', 0.063),
  ('Ab29 (antibody, V domains shown) VH: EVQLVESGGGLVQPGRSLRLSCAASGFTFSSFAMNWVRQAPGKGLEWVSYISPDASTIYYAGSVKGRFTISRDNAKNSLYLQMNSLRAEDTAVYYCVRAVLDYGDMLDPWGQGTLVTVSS VL: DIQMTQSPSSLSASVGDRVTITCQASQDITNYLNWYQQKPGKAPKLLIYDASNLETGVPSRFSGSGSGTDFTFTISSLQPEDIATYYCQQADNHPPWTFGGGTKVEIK', 'Kd', 0.043);

Hey, quick one: what's Kd for each of these?
1. Ab30 (antibody, V domains shown) VH: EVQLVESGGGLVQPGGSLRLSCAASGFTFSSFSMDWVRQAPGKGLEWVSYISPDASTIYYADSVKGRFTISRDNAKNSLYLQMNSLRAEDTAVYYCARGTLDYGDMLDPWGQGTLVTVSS VL: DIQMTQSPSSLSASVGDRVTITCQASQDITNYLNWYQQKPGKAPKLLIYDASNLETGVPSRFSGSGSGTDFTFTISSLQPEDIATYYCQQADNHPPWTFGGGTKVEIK
2. Ab33 (antibody, V domains shown) VH: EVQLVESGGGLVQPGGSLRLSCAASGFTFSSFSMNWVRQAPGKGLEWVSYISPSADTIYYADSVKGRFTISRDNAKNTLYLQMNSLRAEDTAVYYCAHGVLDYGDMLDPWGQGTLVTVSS VL: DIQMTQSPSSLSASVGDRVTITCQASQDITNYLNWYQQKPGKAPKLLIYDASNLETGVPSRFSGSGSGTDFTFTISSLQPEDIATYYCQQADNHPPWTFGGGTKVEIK
3. Ab26 (antibody, V domains shown) VH: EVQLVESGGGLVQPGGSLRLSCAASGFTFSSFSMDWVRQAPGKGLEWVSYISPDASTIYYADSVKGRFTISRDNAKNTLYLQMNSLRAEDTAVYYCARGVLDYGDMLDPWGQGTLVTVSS VL: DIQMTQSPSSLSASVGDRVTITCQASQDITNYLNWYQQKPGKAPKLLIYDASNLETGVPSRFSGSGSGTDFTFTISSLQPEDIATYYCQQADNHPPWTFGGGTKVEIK

### Response
[0.14, 0.046, 0.13]
